Entries and their Mean % hERG Inhibition values follow.
Target: hERG current (Homo sapiens, UniProt Q12809)
Sequence (Q12809 whole entry): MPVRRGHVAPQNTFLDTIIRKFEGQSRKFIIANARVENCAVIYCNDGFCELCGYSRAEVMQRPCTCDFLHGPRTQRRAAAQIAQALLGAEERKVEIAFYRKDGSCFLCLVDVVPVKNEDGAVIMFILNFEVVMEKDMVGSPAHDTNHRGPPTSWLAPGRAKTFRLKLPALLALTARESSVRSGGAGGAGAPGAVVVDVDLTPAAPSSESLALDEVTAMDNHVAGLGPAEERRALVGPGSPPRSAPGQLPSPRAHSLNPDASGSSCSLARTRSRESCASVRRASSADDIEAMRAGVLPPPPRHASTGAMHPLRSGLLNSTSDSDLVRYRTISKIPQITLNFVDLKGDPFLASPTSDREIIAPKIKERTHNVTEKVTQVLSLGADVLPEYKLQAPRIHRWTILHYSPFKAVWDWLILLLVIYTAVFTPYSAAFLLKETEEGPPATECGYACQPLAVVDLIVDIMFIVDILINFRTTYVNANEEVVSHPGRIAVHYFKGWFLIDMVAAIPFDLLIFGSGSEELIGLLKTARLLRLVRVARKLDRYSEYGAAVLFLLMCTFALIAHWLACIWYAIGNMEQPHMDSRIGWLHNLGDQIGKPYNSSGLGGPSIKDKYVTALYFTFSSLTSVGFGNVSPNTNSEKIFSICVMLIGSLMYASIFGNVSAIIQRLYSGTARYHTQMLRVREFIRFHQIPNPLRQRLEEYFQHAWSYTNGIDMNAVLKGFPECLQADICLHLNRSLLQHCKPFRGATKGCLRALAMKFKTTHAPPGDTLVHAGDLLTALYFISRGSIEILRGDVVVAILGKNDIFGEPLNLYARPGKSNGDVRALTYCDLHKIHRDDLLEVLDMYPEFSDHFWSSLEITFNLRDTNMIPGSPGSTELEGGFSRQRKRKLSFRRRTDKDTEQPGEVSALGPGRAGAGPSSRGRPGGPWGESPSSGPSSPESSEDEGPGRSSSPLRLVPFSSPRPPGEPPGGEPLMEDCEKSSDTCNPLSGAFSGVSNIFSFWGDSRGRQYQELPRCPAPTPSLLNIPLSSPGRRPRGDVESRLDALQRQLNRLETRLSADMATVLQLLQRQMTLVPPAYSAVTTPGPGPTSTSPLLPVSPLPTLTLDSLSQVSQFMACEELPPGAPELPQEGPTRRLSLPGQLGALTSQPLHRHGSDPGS
Assay: hERG current, PatchXpress 7000A automatic parallel patch clamp in hERG-transfected HEK 293 cells (Example 6)
Settings: 0.1 μM
measured-metric: Mean % hERG Inhibition

> print(dat)
                               smiles  recorded.measurement
1              O=C(NO)N1CCSc2ccccc2C1                  4.8%
2              COc1ccc2c(c1)CN(C)CCS2                  4.0%
3  COc1ccc2c(c1)CN(C(=O)N1CCCCC1)CCS2                  3.7%
4          O=C(O)C(=O)N1CCSc2ccccc2C1                  7.5%

* * *

Molecular target: UniProtKB Q12809
Experiment: hERG current, PatchXpress 7000A automatic parallel patch clamp in hERG-transfected HEK 293 cells (Example 6)
Conditions: human, HEK 293 cells stably transfected with hERG cDNA, Individual Data (% Inhibition), 1 μM, single cell
Class class 1: inhibition at 5 min, 1 µM at least 5%. Class class 0: inhibition at 5 min, 1 µM below 5%.

> print(dat)
                                     smiles  discrete.label
1           CCN(CC)C(=O)N1CCSc2ccc(OC)cc2C1         class 0
2  O=C(N1CCN(Cc2ccc3c(c2)OCO3)CC1)N1CCSc2ccccc2C1         class 1
3               CCN(CC)C(=O)N1CCSc2ccccc2C1         class 0
4                       COc1ccc2c(c1)CNCCS2         class 1

* * *

Target: hERG current (Homo sapiens, UniProt Q12809)
Test: hERG current, PatchXpress 7000A automatic parallel patch clamp in hERG-transfected HEK 293 cells (Example 6)
Details: 1 μM
measured-metric: Mean % hERG Inhibition (%)

> print(dat)
                                     smiles                               measured.on  recorded.measurement
1  COc1ccc2c(c1)CN(C(=O)N1CCN(Cc3ccc4c(c3)OCO4)CC1)CCS2  hERG current (Homo sapiens, UniProt Q12809)                  29.6
2        COc1ccc2c(c1)CN(C(=O)N1CCCCC1)CCS2  hERG current (Homo sapiens, UniProt Q12809)                   6.1
3                    O=C(NO)N1CCSc2ccccc2C1  hERG current (Homo sapiens, UniProt Q12809)                   1.3
4              O=C(N1CCCCC1)N1CCSc2ccccc2C1  hERG current (Homo sapiens, UniProt Q12809)                   5.7
5                O=C(O)C(=O)N1CCSc2ccccc2C1  hERG current (Homo sapiens, UniProt Q12809)                   3.6
6           COC(=O)C(=O)N1CCSc2ccc(OC)cc2C1  hERG current (Homo sapiens, UniProt Q12809)                   2.7
7  COc1ccc2c(c1)CN(C(=O)C(=O)[O-])CCS2.[Na+]  hERG current (Homo sapiens, UniProt Q12809)                   5.5
8                    COc1ccc2c(c1)CN(C)CCS2  hERG current (Homo sapiens, UniProt Q12809)                   6.2
9    COc1ccc2c(c1)CN(C(=O)C(=O)O)CCS2(=O)=O  hERG current (Homo sapiens, UniProt Q12809)                   4.6
